EXPERIMENT_SUMMARY: Half life in dog
Type: ADME, organism-based, Canis lupus familiaris
TEST_SETTINGS: in vivo
REPORTED_PROPERTY: half-life (min)
Field: numeric (min). Do not append units.

Entry NS(=O)(=O)NCCCC[C@H](NC(=O)OCc1ccccc1)c1nc2cc(-c3cccs3)ccc2[nH]1 — recorded half-life = 342

---

Each entry below carries its recorded IC50.
TGT: Histone deacetylase
EXPERIMENT_SUMMARY: Inhibition of HDAC in HEK293T cells by whole cell assay
Format: cell-based, Homo sapiens
TEST_SETTINGS: hek-293t
Express the reported value numerically, then name its unit.

Example results:
[[record]]
line_notation = "NS(=O)(=O)NCCCC[C@H](NC(=O)OCc1cccc(Cl)c1)C(=O)Nc1nc(-c2ccccc2)cs1"
reported_property = "IC50"
result = "3.6 µM"

[[record]]
line_notation = "NS(=O)(=O)NCCCC[C@H](NC(=O)OCc1ccccc1)c1nnc(-c2ccccc2)o1"
reported_property = "IC50"
result = "9.9 µM"

[[record]]
line_notation = "NS(=O)(=O)NCCCC[C@H](NC(=O)NCc1ccc(F)cc1)C(=O)Nc1nc(-c2ccccc2)cs1"
reported_property = "IC50"
result = "29 µM"

[[record]]
line_notation = "CCOC(=O)N[C@@H](CCCCNS(N)(=O)=O)C(=O)Nc1nc(-c2ccccc2)cs1"
reported_property = "IC50"
result = "17 µM"


Switching to the query record.
Per the record, NS(=O)(=O)NCCCC[C@H](NC(=O)OCc1cccnc1)C(=O)Nc1nc(-c2ccccc2)cs1 has IC50 of 18 µM

---

EXPERIMENT_SUMMARY: Clearance in iv dosed rat
Assay type: ADME, organism-based
TEST_SETTINGS: in vivo
# clearance listing for each entry below
Please append the unit to your numeric answer.

These recorded examples may help you get a feel for the data.
[[record]]
line_notation = "NS(=O)(=O)NCCCC[C@H](NC(=O)OCc1ccccc1)C(=O)Nc1nc(-c2ccccc2)cs1"
result = "41.7 mL/min/kg"

[[record]]
line_notation = "CN(C)CCOc1ccc(-c2nc([C@H](CCCCNS(N)(=O)=O)NC(=O)OCc3ccccc3)cs2)cc1"
result = "38.3 mL/min/kg"


Here is another compound to look at.
# clearance of NS(=O)(=O)NCCCC[C@H](NC(=O)OCc1ccccc1)c1nc2cc(-c3cccs3)ccc2[nH]1 = 6.83 mL/min/kg

---

TGT: Protein deacetylase HDAC6 (Homo sapiens)
Sequence (Q9UBN7 whole entry): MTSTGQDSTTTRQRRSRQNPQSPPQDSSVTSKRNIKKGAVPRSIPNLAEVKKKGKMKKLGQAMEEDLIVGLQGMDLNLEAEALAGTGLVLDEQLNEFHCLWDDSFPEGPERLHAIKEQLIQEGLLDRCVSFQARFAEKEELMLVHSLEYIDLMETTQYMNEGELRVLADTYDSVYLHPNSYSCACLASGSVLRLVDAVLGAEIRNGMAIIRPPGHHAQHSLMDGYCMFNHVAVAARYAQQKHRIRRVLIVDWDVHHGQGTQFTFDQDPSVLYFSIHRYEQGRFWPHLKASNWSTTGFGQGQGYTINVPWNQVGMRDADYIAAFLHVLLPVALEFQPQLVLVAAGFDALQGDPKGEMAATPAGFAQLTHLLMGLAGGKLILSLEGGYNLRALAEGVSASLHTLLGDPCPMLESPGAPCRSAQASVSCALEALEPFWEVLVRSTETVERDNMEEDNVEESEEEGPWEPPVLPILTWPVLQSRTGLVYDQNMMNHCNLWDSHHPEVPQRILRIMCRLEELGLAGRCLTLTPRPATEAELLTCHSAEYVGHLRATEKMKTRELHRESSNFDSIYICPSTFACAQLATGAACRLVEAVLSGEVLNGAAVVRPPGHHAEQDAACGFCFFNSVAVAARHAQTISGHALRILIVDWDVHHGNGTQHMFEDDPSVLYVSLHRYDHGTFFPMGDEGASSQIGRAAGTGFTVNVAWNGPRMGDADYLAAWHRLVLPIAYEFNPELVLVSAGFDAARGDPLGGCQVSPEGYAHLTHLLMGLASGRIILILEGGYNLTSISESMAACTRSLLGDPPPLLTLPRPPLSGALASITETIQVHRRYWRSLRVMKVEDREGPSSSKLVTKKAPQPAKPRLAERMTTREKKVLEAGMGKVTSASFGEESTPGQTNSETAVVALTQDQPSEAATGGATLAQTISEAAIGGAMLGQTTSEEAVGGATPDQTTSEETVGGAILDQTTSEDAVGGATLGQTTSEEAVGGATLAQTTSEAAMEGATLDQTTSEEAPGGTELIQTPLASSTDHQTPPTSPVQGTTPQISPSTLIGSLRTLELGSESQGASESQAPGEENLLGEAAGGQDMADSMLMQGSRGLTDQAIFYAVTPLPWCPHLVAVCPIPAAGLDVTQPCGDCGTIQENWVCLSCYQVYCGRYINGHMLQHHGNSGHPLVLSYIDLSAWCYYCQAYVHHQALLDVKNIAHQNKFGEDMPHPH
EXPERIMENT_SUMMARY: Inhibition of human recombinant His-tagged HDAC6 expressed in baculovirus
REPORTED_PROPERTY: IC50 (nM)
Write it as a number; the unit nM goes unstated.

Illustrative cases are given below, each with its answer.
[[record]]
line_notation = "NS(=O)(=O)NCCCC[C@H](NC(=O)OCc1ccccc1)c1nnc(-c2ccccc2)o1"
unit_name = "nM"
measured_number = 1800

[[record]]
line_notation = "N[C@@H](CCCCNS(N)(=O)=O)C(=O)Nc1nc(-c2ccccc2)cs1"
unit_name = "nM"
measured_number = 1100

[[record]]
line_notation = "NS(=O)(=O)NCCCC[C@H](NC(=O)OCc1ccccc1)C(=O)Nc1nccs1"
unit_name = "nM"
measured_number = 4100

[[record]]
line_notation = "CN(C)CCOc1ccc(-c2nc([C@H](CCCCNS(N)(=O)=O)NC(=O)OCc3ccccc3)cs2)cc1"
unit_name = "nM"
measured_number = 890


Recorded result, NS(=O)(=O)NCCCC[C@H](NC(=O)OCc1ccc(Cl)cc1)C(=O)Nc1nc(-c2ccccc2)cs1 , IC50: 530

Each recorded value in this set is attributed to ChEMBL document CHEMBL1153367.
